tested on: UO-31; assay: NCI tumour cell line growth inhibition, 48 h
Active and inactive are the calls of the source. Cut-off read from the data, not from the text of the source: active = GI50 up to about 1.1 µM and inactive = higher. Where a SMILES comes first, the peptide text is derived from it. [ ]: non-standard residue; d: D form. The star is where a group is joined. Phe(2-OMe) = COc1ccccc1C[CH](N)C(=O)O; 2Nal = N[CH](Cc1ccc2ccccc2c1)C(=O)O; Cbz = O=C(OCc1ccccc1)*; OBn = c1ccc(CO*)cc1
Possible outcomes: TRUE for active, FALSE for inactive

{"MOLECULE": "CN1CCN(C(=S)N(C)C(=O)c2cccs2)CC1", "SYSTEM_UNDER_TEST": "UO-31", "CLASSIFICATION": "FALSE"}
{"MOLECULE": "CCOC(=O)C12CCCC1(O)N(NC(=O)c1ccccc1)C(C)=C2C(=O)OC (configuration not stated)", "SYSTEM_UNDER_TEST": "UO-31", "CLASSIFICATION": "FALSE"}
{"MOLECULE": "O=C(Cn1c2ccc(Br)cc2c2nc3ccccc3nc21)NC1CCCCC1", "SYSTEM_UNDER_TEST": "UO-31", "CLASSIFICATION": "FALSE"}
{"MOLECULE": "C=C(CN)CO[Si](C)(C)C(C)(C)C", "SYSTEM_UNDER_TEST": "UO-31", "CLASSIFICATION": "FALSE"}
{"MOLECULE": "COC(=O)C1=CN(C2CCCCC2)C2(c3ccccc3)c3ccccc3C(=O)OC(=O)C12 (configuration not stated)", "SYSTEM_UNDER_TEST": "UO-31", "CLASSIFICATION": "FALSE"}
{"MOLECULE": "NCCc1c[nH]c2ccc(OC(=O)C(=O)O)cc12", "SYSTEM_UNDER_TEST": "UO-31", "CLASSIFICATION": "FALSE"}
{"MOLECULE": "COc1cc2[nH]c3c(c2cc1OC)CCN[C@]31CC[C@]2(CC3c4c(cc(OC)c(O)c42)CCN3C)C[C@H]1OC (some centres not stated)", "SYSTEM_UNDER_TEST": "UO-31", "CLASSIFICATION": "FALSE"}
{"MOLECULE": "CCOC(OC1=C(C#N)CCCC1)C(CC)[Se]c1ccccc1 (configuration not stated)", "SYSTEM_UNDER_TEST": "UO-31", "CLASSIFICATION": "FALSE"}
{"MOLECULE": "COc1cc(S(=O)(=O)Nc2nc(-c3ccc(/N=C/c4ccccc4O)cc3)cs2)ccc1Cl", "SYSTEM_UNDER_TEST": "UO-31", "CLASSIFICATION": "FALSE"}
{"MOLECULE": "CCN(CC)CCNC(=O)c1ccc(C)c(OCc2ccccc2)c1[N+](=O)[O-]", "SYSTEM_UNDER_TEST": "UO-31", "CLASSIFICATION": "FALSE"}
{"MOLECULE": "CC(=O)O[C@H]1C(=O)[C@]2(C)[C@@H](OC(=O)OCC(O)CO)C[C@H]3OC[C@@]3(OC(C)=O)[C@H]2[C@H](OC(=O)c2ccccc2)[C@]2(O)C[C@H](OC(=O)[C@H](O)[C@@H](NC(=O)c3ccccc3)c3ccccc3)C(C)=C1C2(C)C (some centres not stated) [PACLITAXEL CERIBATE]", "SYSTEM_UNDER_TEST": "UO-31", "CLASSIFICATION": "TRUE"}
{"MOLECULE": "Cn1c(=O)c2[nH]cnc2n(CC(=O)O)c1=O", "SYSTEM_UNDER_TEST": "UO-31", "CLASSIFICATION": "FALSE"}
{"MOLECULE": "Cn1cc(NC(=O)c2cc(NC(=O)Nc3cc(C(=O)Nc4cc(C(=O)NCCC(=N)N)n(C)c4)n(C)c3)cn2C)cc1C(=O)NCCC(=N)N", "SYSTEM_UNDER_TEST": "UO-31", "CLASSIFICATION": "FALSE"}
{"MOLECULE": "C#C[C@@]1(O)CCCC2=CC3(CC[C@]21C)SCCS3", "SYSTEM_UNDER_TEST": "UO-31", "CLASSIFICATION": "FALSE"}
{"MOLECULE": "COc1ccc(-n2c3c(c4cc(O)ccc42)Cc2ccccc2C3=O)cc1", "SYSTEM_UNDER_TEST": "UO-31", "CLASSIFICATION": "FALSE"}
{"MOLECULE": "Cc1cc2[nH]c(=NS(=O)(=O)c3cc(C)c(Cl)cc3S)[nH]c2cc1C", "SYSTEM_UNDER_TEST": "UO-31", "CLASSIFICATION": "FALSE"}
{"MOLECULE": "Cc1cn(C(Cc2ccccc2)OCCO)c(=O)[nH]c1=O (configuration not stated)", "SYSTEM_UNDER_TEST": "UO-31", "CLASSIFICATION": "FALSE"}
{"MOLECULE": "O=c1[nH]n(Cc2ccccc2Cl)c2ccc([N+](=O)[O-])cc12", "SYSTEM_UNDER_TEST": "UO-31", "CLASSIFICATION": "FALSE"}
{"MOLECULE": "CCCCCCCCCCCCC(=O)OC(c1cnco1)c1nc(C(O)CC(O)C(O)C(C)O)co1 (configuration not stated)", "SYSTEM_UNDER_TEST": "UO-31", "CLASSIFICATION": "FALSE"}
{"MOLECULE": "CC(=O)Nc1ccc(C2SCc3nc4ccccc4n32)cc1 (configuration not stated)", "SYSTEM_UNDER_TEST": "UO-31", "CLASSIFICATION": "FALSE"}
{"MOLECULE": "COC(=O)CN1Cc2cc(C)cc(c2O)CN(CC(=O)OC)Cc2cc(C)cc(c2O)CN(CC(=O)OC)Cc2cc(C)cc(c2O)C1", "SYSTEM_UNDER_TEST": "UO-31", "CLASSIFICATION": "FALSE"}
{"MOLECULE": "CC(C)(C)CC(C)(C)NC(=S)NO", "SYSTEM_UNDER_TEST": "UO-31", "CLASSIFICATION": "FALSE"}
{"MOLECULE": "CC[n+]1c(/C=C/c2ccc(N(CCCl)CCCl)cc2)ccc2cc(Br)ccc21", "SYSTEM_UNDER_TEST": "UO-31", "CLASSIFICATION": "FALSE"}
{"MOLECULE": "Cc1ccc(S(=O)(=O)c2c(N)c3nc4ccccc4n3c3nc4ccccc4nc23)cc1", "SYSTEM_UNDER_TEST": "UO-31", "CLASSIFICATION": "FALSE"}
{"MOLECULE": "O=C(CSc1nc(-c2ccccc2)c(-c2ccccc2)[nH]1)NNC(=S)Nc1ccccc1", "SYSTEM_UNDER_TEST": "UO-31", "CLASSIFICATION": "FALSE"}
{"MOLECULE": "COc1cc2c(cc1OC)C(C#N)N(C(=O)c1ccccc1)C=C2OC(=O)c1ccccc1 (configuration not stated)", "SYSTEM_UNDER_TEST": "UO-31", "CLASSIFICATION": "FALSE"}
{"MOLECULE": "CNCCCNC1(c2cc3ccccc3s2)CCCCC1", "SYSTEM_UNDER_TEST": "UO-31", "CLASSIFICATION": "FALSE"}
{"MOLECULE": "CC(NC(=O)C(N)Cc1ccccc1)C(=O)NC(Cc1ccc(O)cc1)C(=O)NC(Cc1c[nH]c2ccccc12)C(=O)NC(CCCCN)C(=O)NC(C(=O)NC(C)C(=O)NC(Cc1ccc2ccccc2c1)C(N)=O)C(C)C (configuration not stated) (H-FAYWKVA[2Nal]-NH2; configuration not given here)", "SYSTEM_UNDER_TEST": "UO-31", "CLASSIFICATION": "FALSE"}
{"MOLECULE": "COC(=O)c1c(O)ccc2c1c1c(n2Cc2ccccc2OC)C(=O)c2ccccc2C1=O", "SYSTEM_UNDER_TEST": "UO-31", "CLASSIFICATION": "FALSE"}
{"MOLECULE": "CC(C)=NNC(=S)NC12CC3CC(CC(C3)C1)C2", "SYSTEM_UNDER_TEST": "UO-31", "CLASSIFICATION": "FALSE"}
{"MOLECULE": "CNn1c(-c2ccc(C)cc2)n[nH]c1=O", "SYSTEM_UNDER_TEST": "UO-31", "CLASSIFICATION": "FALSE"}
{"MOLECULE": "COC(=O)C(Cc1ccccc1OC)NC(=O)C(CC(=O)OCc1ccccc1)NC(=O)OCc1ccccc1 (configuration not stated) (Cbz-Asp(OBn)-[Phe(2-OMe)]-OMe; configuration not given here)", "SYSTEM_UNDER_TEST": "UO-31", "CLASSIFICATION": "FALSE"}
{"MOLECULE": "Nc1nnc(-c2ccco2)c(-c2ccco2)n1", "SYSTEM_UNDER_TEST": "UO-31", "CLASSIFICATION": "FALSE"}
{"MOLECULE": "COC(=O)OCC1OC(N2C(=O)NC(=O)C(I)C2N=[N+]=[N-])CC1OC(=O)OC (configuration not stated)", "SYSTEM_UNDER_TEST": "UO-31", "CLASSIFICATION": "FALSE"}
{"MOLECULE": "C=C(C1=CC(=O)C(C)(C)O1)[C@@H]1CC=C([C@@H]2CC[C@H]3[C@@]2(C)CC[C@H]2C(C)(C)C(=O)[C@H](O)C[C@]32C)[C@H](O)O1", "SYSTEM_UNDER_TEST": "UO-31", "CLASSIFICATION": "FALSE"}
{"MOLECULE": "COC(=O)c1ccccc1/C=C1\\Cc2c(C)c3c(c(C)c2C1=O)CCC3", "SYSTEM_UNDER_TEST": "UO-31", "CLASSIFICATION": "FALSE"}
{"MOLECULE": "CC(C)(C)c1ccc(-n2c3nc(=O)n(-c4ccccc4C(F)(F)F)c(=O)c-3cc3ccccc32)cc1", "SYSTEM_UNDER_TEST": "UO-31", "CLASSIFICATION": "FALSE"}
